assay_remarks: Permeability in human Caco2 cells
Format: ADME, cell-based
study_conditions: Caco-2, read-out: permeability
observed_property: Papp (×10⁻⁶ cm/s)

Example compounds with recorded Papp:
[Q] What value of Papp has been recorded for this entry: "CC(C)(Oc1ccc2ccccc2c1)C(=O)N[C@@H]1O[C@H](CO)[C@@H](O)[C@H](O)[C@H]1O"
[A] 10.6

[Q] Input "Cc1ccccc1[C@H](Cc1ccco1)C(=O)N[C@@H]1O[C@H](CO)[C@@H](O)[C@H](O)[C@H]1O"
[A] 12.2

[Q] "O=C1Cc2ccc(Cl)cc2C=C1C(=O)N[C@@H]1O[C@H](CO)[C@@H](O)[C@H](O)[C@H]1O" ?
[A] 3.85

[Q] Okay, and "CCc1ccc(/C=C/C(=O)N[C@@H]2O[C@H](CO)[C@@H](O)[C@H](O)[C@H]2O)cc1" ?
[A] 9.47

1 = CCc1ccc([C@H](C)CC(=O)N[C@@H]2O[C@H](CO)[C@@H](O)[C@H](O)[C@H]2O)cc1
2 = C[C@@H]1C[C@@]1(C(=O)N[C@@H]1O[C@H](CO)[C@@H](O)[C@H](O)[C@H]1O)c1cccc2ccccc12
3 = O=C(C[C@H]1CC(=O)c2c(F)cc(F)cc21)N[C@@H]1O[C@H](CO)[C@@H](O)[C@H](O)[C@H]1O
4 = O=C(COc1ccc(-c2ccccc2)cc1)N[C@@H]1O[C@H](CO)[C@@H](O)[C@H](O)[C@H]1O
[Q] # sort list by recorded Papp, greatest to least Form field (ranking): labels in requested order.
[A] 2, 1, 4, 3
(2: 14.5 ×10⁻⁶ cm/s, 1: 8.9 ×10⁻⁶ cm/s, 4: 5.09 ×10⁻⁶ cm/s, 3: 3.17 ×10⁻⁶ cm/s)

Hello, the source for this data is ChEMBL document CHEMBL3352414, in case you need it.
